System: JHU-022 (Oral Cavity Carcinoma)
assay name: combination Emax (second highest fraction inhibited in the dose matrix, 72 h); higher = more inhibition; extreme values may be limits of the assay
observation type: combination Emax
Give only the figure.

- compound: "CN(CCO)CC[C@H](CSc1ccccc1)Nc1ccc(S(=O)(=O)NC(=O)c2ccc(N3CCC([C@@H](O)c4ccccc4-c4ccc(Cl)cc4)CC3)cc2)cc1S(=O)(=O)C(F)(F)F [AZD4320] + CN(C)CCCOc1ccc(-c2ccc3ncc4c(c3c2)n(C2CCOCC2)c(=O)n4C)cn1 [AZD0156] (first compound max 1 µM, 7x7, partner max 1 µM)"
  combination Emax: 0.102

What value of combination Emax has been reported for the following compound? CC1(C)CCC(CN2CCN(c3ccc(C(=O)NS(=O)(=O)c4ccc(NCC5CCOCC5)c([N+](=O)[O-])c4)c(Oc4cnc5[nH]ccc5c4)c3)CC2)=C(c2ccc(Cl)cc2)C1 [Venetoclax] + Cc1cc2ncnn2cc1Nc1ncc2c(n1)n(C1CCOCC1)c(=O)n2C [AZD7648] (first compound max 1 µM, 7x7, partner max 10 µM)
0.221

---

System: 22RV1 (Prostate Carcinoma)
assay name: Bliss excess, mean over the matrix (fraction); higher = more synergy
Consider the following compounds and their measured Bliss excess readings.
Please give the numeric answer without any surrounding text.

// known answers, use as guide
- compound: "CN(CCO)CC[C@H](CSc1ccccc1)Nc1ccc(S(=O)(=O)NC(=O)c2ccc(N3CCC([C@@H](O)c4ccccc4-c4ccc(Cl)cc4)CC3)cc2)cc1S(=O)(=O)C(F)(F)F [AZD4320] + C[C@@H]1COCCN1C2=NC(=NC(=C2)C3(CC3)[S@](=N)(=O)C)C4=C5C=CNC5=NC=C4 [AZD6738] (first compound max 1 µM, 7x7, partner max 10 µM)"
  target entity: "22RV1 (Prostate Carcinoma)"
  Bliss excess: -0.133
- compound: "Cn1cnc2c(F)c(Nc3ccc(Br)cc3Cl)c(C(=O)NOCCO)cc21 [Selumetinib] + CC(C)n1c(=O)n(C)c2cnc3cc(F)c(-c4ccc(OCCCN5CCCCC5)nc4)cc3c21 [AZD1390] (first compound max 10 µM, 7x7, partner max 0.3 µM)"
  target entity: "22RV1 (Prostate Carcinoma)"
  Bliss excess: -0.0538
- compound: "CS(=O)(=O)CCNCc1ccc(-c2ccc3ncnc(Nc4ccc(OCc5cccc(F)c5)c(Cl)c4)c3c2)o1 [Lapatinib] + NC1(c2ccc(-c3nc4ccn5c(=O)[nH]nc5c4cc3-c3ccccc3)cc2)CCC1 [MK-2206] (first compound max 10 µM, 7x7, partner max 10 µM)"
  target entity: "22RV1 (Prostate Carcinoma)"
  Bliss excess: -0.0139
- compound: "Cc1c2c(nn1C)CSCc1cc(n(C)n1)CSc1cc(c3ccccc3c1)OCCCc1c(C(=O)O)n(C)c3c-2c(Cl)ccc13 [AZD5991] + CC(=O)O[C@H]1C(=O)[C@@]2(C)[C@H]([C@H](OC(=O)c3ccccc3)[C@]3(O)C[C@H](OC(=O)[C@H](O)[C@@H](NC(=O)c4ccccc4)c4ccccc4)C(C)=C1C3(C)C)[C@]1(OC(C)=O)CO[C@@H]1C[C@@H]2O [Paclitaxel] (first compound max 1 µM, 7x7, partner max 3 µM)"
  target entity: "22RV1 (Prostate Carcinoma)"
  Bliss excess: 0.0731
- compound: "COc1cccc(OCCCN)c1-c1cc(Nc2cnc(C#N)cn2)n[nH]1 [Prexasertib] + CN(C)CCCOc1ccc(-c2ccc3ncc4c(c3c2)n(C2CCOCC2)c(=O)n4C)cn1 [AZD0156] (first compound max 1 µM, 7x7, partner max 1 µM)"
  target entity: "22RV1 (Prostate Carcinoma)"
  Bliss excess: -0.0213

Form: Entry = Cc1c2c(nn1C)CSCc1cc(n(C)n1)CSc1cc(c3ccccc3c1)OCCCc1c(C(=O)O)n(C)c3c-2c(Cl)ccc13 [AZD5991] + CS(=O)(=O)CCNCc1ccc(-c2ccc3ncnc(Nc4ccc(OCc5cccc(F)c5)c(Cl)c4)c3c2)o1 [Lapatinib] (first compound max 1 µM, 7x7, partner max 10 µM) | System = 22RV1 (Prostate Carcinoma) | Bliss excess = ____
-0.0131

---

Test system: JVM-2 (B-Cell Non-Hodgkin's Lymphoma)
assay name: combination Emax (second highest fraction inhibited in the dose matrix, 72 h); higher = more inhibition; extreme values may be limits of the assay
Let's look at some compounds and their measured combination Emax.

Query: combination Emax; subject: COc1cccc(OCCCN)c1-c1cc(Nc2cnc(C#N)cn2)n[nH]1 [Prexasertib] + C=CCn1c(=O)c2cnc(Nc3ccc(N4CCN(C)CC4)cc3)nc2n1-c1cccc(C(C)(C)O)n1 [AZD1775] (first compound max 1 µM, partner max 1 µM)
0.942

Requested field: combination Emax. Item: C[C@@H](c1ccc2nccn2c1)n1nnc2ncc(-c3cnn(C)c3)nc21 [Savolitinib] + CC1(C)CCC(CN2CCN(c3ccc(C(=O)NS(=O)(=O)c4ccc(NCC5CCOCC5)c([N+](=O)[O-])c4)c(Oc4cnc5[nH]ccc5c4)c3)CC2)=C(c2ccc(Cl)cc2)C1 [Venetoclax] (first compound max 1 µM, 7x7, partner max 1 µM)
0.141

If you can, please state the reported combination Emax value of CN(CCO)CC[C@H](CSc1ccccc1)Nc1ccc(S(=O)(=O)NC(=O)c2ccc(N3CCC([C@@H](O)c4ccccc4-c4ccc(Cl)cc4)CC3)cc2)cc1S(=O)(=O)C(F)(F)F [AZD4320] + Cn1cnc2c(F)c(Nc3ccc(Br)cc3Cl)c(C(=O)NOCCO)cc21 [Selumetinib] (first compound max 1 µM, 7x7, partner max 3 µM) .
0.889

---

Tested on: MDA-MB-436 (Breast Carcinoma)
assay name: Bliss excess, mean over the matrix (fraction); higher = more synergy
observation type: Bliss excess
# output: bare number, no unit

Reference set (2 entries):
- compound: "C=CCn1c(=O)c2cnc(Nc3ccc(N4CCN(C)CC4)cc3)nc2n1-c1cccc(C(C)(C)O)n1 [AZD1775] + CCc1c2c(nc3ccc(O)cc13)-c1cc3c(c(=O)n1C2)COC(=O)[C@]3(O)CC [SN-38] (first compound max 1 µM, partner max 0.3 µM)"
  Bliss excess: -0.0545
- compound: "Cc1cc2ncnn2cc1Nc1ncc2c(n1)n(C1CCOCC1)c(=O)n2C [AZD7648] + C=CCn1c(=O)c2cnc(Nc3ccc(N4CCN(C)CC4)cc3)nc2n1-c1cccc(C(C)(C)O)n1 [AZD1775] (first compound max 10 µM, partner max 1 µM)"
  Bliss excess: -0.0189

Here's the next entry for you.
Data request, read-out Bliss excess, for CS(=O)(=O)CCNCc1ccc(-c2ccc3ncnc(Nc4ccc(OCc5cccc(F)c5)c(Cl)c4)c3c2)o1 [Lapatinib] + NC1(c2ccc(-c3nc4ccn5c(=O)[nH]nc5c4cc3-c3ccccc3)cc2)CCC1 [MK-2206] (first compound max 10 µM, 7x7, partner max 10 µM)
0.0323

---

Tested on: KYSE-140 (Esophageal Squamous Cell Carcinoma)
assay name: combination Emax (second highest fraction inhibited in the dose matrix, 72 h); higher = more inhibition; extreme values may be limits of the assay
observation type: combination Emax

Field: example entries. Status: answers known.
- molecule: "Cc1c2c(nn1C)CSCc1cc(n(C)n1)CSc1cc(c3ccccc3c1)OCCCc1c(C(=O)O)n(C)c3c-2c(Cl)ccc13 [AZD5991] + CCN(CCO)CCCOc1ccc2c(Nc3cc(CC(=O)Nc4cccc(F)c4)[nH]n3)ncnc2c1 [AZD2811] (first compound max 1 µM, 7x7, partner max 1 µM)"
  observation type: "combination Emax"
  measurement: 0.602
- molecule: "CC1(C)CCC(CN2CCN(c3ccc(C(=O)NS(=O)(=O)c4ccc(NCC5CCOCC5)c([N+](=O)[O-])c4)c(Oc4cnc5[nH]ccc5c4)c3)CC2)=C(c2ccc(Cl)cc2)C1 [Venetoclax] + C=CCn1c(=O)c2cnc(Nc3ccc(N4CCN(C)CC4)cc3)nc2n1-c1cccc(C(C)(C)O)n1 [AZD1775] (first compound max 1 µM, partner max 1 µM)"
  observation type: "combination Emax"
  measurement: 0.814

Now consider a different molecule.
Which combination Emax value belongs to CN(CCO)CC[C@H](CSc1ccccc1)Nc1ccc(S(=O)(=O)NC(=O)c2ccc(N3CCC([C@@H](O)c4ccccc4-c4ccc(Cl)cc4)CC3)cc2)cc1S(=O)(=O)C(F)(F)F [AZD4320] + C1CN(CCC1(C(=O)N[C@@H](CCO)C2=CC=C(C=C2)Cl)N)C3=NC=NC4=C3C=CN4 [Capivasertib] (first compound max 1 µM, 7x7, partner max 3 µM) ?
0.664

---

Test system: MHH-ES-1 (Ewing's Sarcoma)
assay name: Bliss excess, mean over the matrix (fraction); higher = more synergy
Recorded Bliss excess, one value per entry.
Answer as a number with no unit attached.

- molecule: "COc1cccc(OCCCN)c1-c1cc(Nc2cnc(C#N)cn2)n[nH]1 [Prexasertib] + CN(C)CCCOc1ccc(-c2ccc3ncc4c(c3c2)n(C2CCOCC2)c(=O)n4C)cn1 [AZD0156] (first compound max 1 µM, 7x7, partner max 1 µM)"
  Bliss excess: 0.0004
- molecule: "CC(=O)c1c(C)c2cnc(Nc3ccc(N4CCNCC4)cn3)nc2n(C2CCCC2)c1=O [Palbociclib] + Cn1cnc2c(F)c(Nc3ccc(Br)cc3Cl)c(C(=O)NOCCO)cc21 [Selumetinib] (first compound max 10 µM, 7x7, partner max 10 µM)"
  Bliss excess: -0.0061
- molecule: "NC1(C(=O)N[C@@H](CCO)c2ccc(Cl)cc2)CCN(c2ncnc3[nH]ccc23)CC1 [Capivasertib] + COc1nnc2ccc(N3CCC(c4ccc(OCCN5CCN(C)C(=O)[C@H]5C)cc4)CC3)nn12 [AZD5153] (first compound max 10 µM, 7x7, partner max 1 µM)"
  Bliss excess: 0.0467
- molecule: "Cc1c2c(nn1C)CSCc1cc(n(C)n1)CSc1cc(c3ccccc3c1)OCCCc1c(C(=O)O)n(C)c3c-2c(Cl)ccc13 [AZD5991] + Cn1cnc2c(F)c(Nc3ccc(Br)cc3Cl)c(C(=O)NOCCO)cc21 [Selumetinib] (first compound max 1 µM, 7x7, partner max 3 µM)"
  Bliss excess: -0.0127
- molecule: "Cc1c2c(nn1C)CSCc1cc(n(C)n1)CSc1cc(c3ccccc3c1)OCCCc1c(C(=O)O)n(C)c3c-2c(Cl)ccc13 [AZD5991] + CC(=O)O[C@H]1C(=O)[C@@]2(C)[C@H]([C@H](OC(=O)c3ccccc3)[C@]3(O)C[C@H](OC(=O)[C@H](O)[C@@H](NC(=O)c4ccccc4)c4ccccc4)C(C)=C1C3(C)C)[C@]1(OC(C)=O)CO[C@@H]1C[C@@H]2O [Paclitaxel] (first compound max 1 µM, 7x7, partner max 3 µM)"
  Bliss excess: -0.009
- molecule: "C[C@@H]1COCCN1c1cc(C2([S@](C)(=N)=O)CC2)nc(-c2ccnc3[nH]ccc23)n1 [AZD6738] + Nc1ccn([C@@H]2O[C@H](CO)[C@@H](O)C2(F)F)c(=O)n1 [Gemcitabine] (first compound max 10 µM, 7x7, partner max 0.3 µM)"
  Bliss excess: 0.0624
- molecule: "C[C@@H](c1ccc2nccn2c1)n1nnc2ncc(-c3cnn(C)c3)nc21 [Savolitinib] + Cc1c2c(nn1C)CSCc1cc(n(C)n1)CSc1cc(c3ccccc3c1)OCCCc1c(C(=O)O)n(C)c3c-2c(Cl)ccc13 [AZD5991] (first compound max 1 µM, 7x7, partner max 1 µM)"
  Bliss excess: -0.0486

Could you share which Bliss excess value was measured for CC1(C)CCC(CN2CCN(c3ccc(C(=O)NS(=O)(=O)c4ccc(NCC5CCOCC5)c([N+](=O)[O-])c4)c(Oc4cnc5[nH]ccc5c4)c3)CC2)=C(c2ccc(Cl)cc2)C1 [Venetoclax] + CCN(CCO)CCCOc1ccc2c(Nc3cc(CC(=O)Nc4cccc(F)c4)[nH]n3)ncnc2c1 [AZD2811] (first compound max 1 µM, 7x7, partner max 1 µM) ?
0.0824

Reference source: the supplement of paper PMC11061612
